# Experimental System: rat insulin receptor (INSR) on CHOK1 cells (rat, UniProt P15127 27-1383)
# Experiment Notes: cell-based or functional assay
Below, each entry is listed alongside its reported EC50 (nM), pAKT signaling assay.
Field: numeric (nM). Do not append units.

The cases that follow already have their EC50 (nM), pAKT signaling assay on record.
Ask | EC50 (nM), pAKT signaling assay for XPA.15.247 Fab (Fab, V domains shown, Monomeric Fab; also called Fab247; XPA.15.247 parent Fab) VH: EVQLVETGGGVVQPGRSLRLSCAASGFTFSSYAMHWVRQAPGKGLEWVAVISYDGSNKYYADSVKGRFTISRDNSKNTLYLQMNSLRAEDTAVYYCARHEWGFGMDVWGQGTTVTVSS VL: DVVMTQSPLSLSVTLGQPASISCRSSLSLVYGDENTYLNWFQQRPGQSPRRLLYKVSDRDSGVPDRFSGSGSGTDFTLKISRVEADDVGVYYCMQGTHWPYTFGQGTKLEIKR ?
Reply | 46.6

Ask | EC50 (nM), pAKT signaling assay for XPA.15.247.2.011 IgG (antibody, V domains shown, Tested as IgG; also called XPA.15.247.011) VH: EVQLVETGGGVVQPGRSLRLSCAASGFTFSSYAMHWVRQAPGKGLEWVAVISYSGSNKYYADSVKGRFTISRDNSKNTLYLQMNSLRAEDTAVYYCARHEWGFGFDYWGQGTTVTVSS VL: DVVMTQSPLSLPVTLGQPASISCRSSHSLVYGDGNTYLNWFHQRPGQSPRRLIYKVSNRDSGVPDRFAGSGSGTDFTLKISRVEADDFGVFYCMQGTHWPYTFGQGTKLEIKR ?
Reply | 3.1

Ask | EC50 (nM), pAKT signaling assay for XPA.15.247 parent antibody (IgG) (antibody, V domains shown, Tested as IgG; also called XPA.15.247 antibody) VH: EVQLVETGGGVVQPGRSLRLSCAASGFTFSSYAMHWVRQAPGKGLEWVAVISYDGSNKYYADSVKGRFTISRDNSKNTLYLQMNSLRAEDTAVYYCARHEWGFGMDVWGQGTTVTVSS VL: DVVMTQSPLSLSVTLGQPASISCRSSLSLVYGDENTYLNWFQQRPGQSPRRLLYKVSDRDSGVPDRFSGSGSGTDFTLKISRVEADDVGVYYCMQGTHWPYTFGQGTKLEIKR ?
Reply | 46.2

Ask | EC50 (nM), pAKT signaling assay for XPA.15.247.2.018 Fab (Fab, V domains shown, Monomeric Fab; also called XPA.247.2.018) VH: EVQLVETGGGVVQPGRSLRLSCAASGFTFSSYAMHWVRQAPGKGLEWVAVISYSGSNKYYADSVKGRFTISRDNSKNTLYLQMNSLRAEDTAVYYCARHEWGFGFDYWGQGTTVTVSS VL: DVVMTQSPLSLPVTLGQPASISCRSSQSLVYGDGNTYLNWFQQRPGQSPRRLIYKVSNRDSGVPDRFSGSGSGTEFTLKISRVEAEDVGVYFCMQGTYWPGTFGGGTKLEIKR ?
Reply | 4.2

Next binder, EC50 (nM), pAKT signaling assay to be filled in.
Ask | EC50 (nM), pAKT signaling assay for XPA.15.247.2.014 IgG (antibody, V domains shown, Tested as IgG; also called XPA.15.247.014) VH: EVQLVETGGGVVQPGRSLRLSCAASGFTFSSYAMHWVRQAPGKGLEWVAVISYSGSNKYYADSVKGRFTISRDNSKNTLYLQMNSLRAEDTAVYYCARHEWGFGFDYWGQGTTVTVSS VL: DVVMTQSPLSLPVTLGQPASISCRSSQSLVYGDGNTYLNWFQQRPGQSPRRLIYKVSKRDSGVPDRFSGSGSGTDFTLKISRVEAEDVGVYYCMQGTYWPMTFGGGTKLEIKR ?
Reply | 4.2
